# Test system: Porphyromonas
# assay_details: Antimicrobial activity against Porphyromonas sp. by Wadsworth agar dilution method
# Format: functional
result_type: MIC90 (µg/mL)
Numbers only, in µg/mL.

// solved cases for MIC90 follow
molecule	MIC90, µg/mL
CN[C@H](CC(C)C)C(=O)N[C@H]1C(=O)N[C@@H](CC(N)=O)C(=O)N[C@H]2C(=O)N[C@H]3C(=O)N[C@H](C(=O)N[C@H](C(=O)O)c4cc(O)cc(O)c4-c4cc3ccc4O)[C@H](O)c3ccc(c(Cl)c3)Oc3cc2cc(c3O[C@@H]2O[C@H](CO)[C@@H](O)[C@H](O)[C@H]2O[C@H]2C[C@](C)(N)[C@H](O)[C@H](C)O2)Oc2ccc(cc2Cl)[C@H]1O [VANCOMYCIN]	8
CO[C@H]1/C=C/O[C@@]2(C)Oc3c(C)c(O)c4c(O)c(c5c(nc6cc(C)ccn65)c4c3C2=O)NC(=O)/C(C)=C\C=C\[C@H](C)[C@H](O)[C@@H](C)[C@@H](O)[C@@H](C)[C@H](OC(C)=O)[C@@H]1C [RIFAXIMIN]	0.5

Let us examine a further case.
Which value of MIC90 has been reported for CC(=O)Oc1ccccc1C(=O)Nc1ncc([N+](=O)[O-])s1 [NITAZOXANIDE] in the records?
1

====

# Tested on: Anaerococcus tetradius
# assay_details: Antimicrobial activity against Anaerococcus tetradius by Wadsworth agar dilution method
# Format: functional
result_type: MIC90 (µg/mL)
Give bare numbers, in µg/mL.

// solved cases for MIC90 follow
molecule	MIC90 (µg/mL)
CC(=O)Oc1ccccc1C(=O)Nc1ncc([N+](=O)[O-])s1 [NITAZOXANIDE]	1
CN[C@H](CC(C)C)C(=O)N[C@H]1C(=O)N[C@@H](CC(N)=O)C(=O)N[C@H]2C(=O)N[C@H]3C(=O)N[C@H](C(=O)N[C@H](C(=O)O)c4cc(O)cc(O)c4-c4cc3ccc4O)[C@H](O)c3ccc(c(Cl)c3)Oc3cc2cc(c3O[C@@H]2O[C@H](CO)[C@@H](O)[C@H](O)[C@H]2O[C@H]2C[C@](C)(N)[C@H](O)[C@H](C)O2)Oc2ccc(cc2Cl)[C@H]1O [VANCOMYCIN]	1
CO[C@H]1/C=C/O[C@@]2(C)Oc3c(C)c(O)c4c(O)c(c5c(nc6cc(C)ccn65)c4c3C2=O)NC(=O)/C(C)=C\C=C\[C@H](C)[C@H](O)[C@@H](C)[C@@H](O)[C@@H](C)[C@H](OC(C)=O)[C@@H]1C [RIFAXIMIN]	4

Which value of MIC90 has been reported for NC[C@@H]1O[C@H](O[C@H]2[C@@H](O)[C@H](O[C@@H]3[C@@H](O)[C@H](N)C[C@H](N)[C@H]3O[C@H]3O[C@H](CN)[C@@H](O)[C@H](O)[C@H]3N)O[C@@H]2CO)[C@H](N)[C@@H](O)[C@@H]1O [FRAMYCETIN] in the records?
512

====

Would you mind telling me the reported MIC90 of each entry?
# System: Desulfovibrio vulgaris
# assay_details: Antimicrobial activity against Desulfovibrio vulgaris by Wadsworth agar dilution method
# Format: functional
# condition: Nitratidesulfovibrio vulgaris
Answers are plain numbers, in µg/mL.

molecule	MIC90 (µg/mL)
NC[C@@H]1O[C@H](O[C@H]2[C@@H](O)[C@H](O[C@@H]3[C@@H](O)[C@H](N)C[C@H](N)[C@H]3O[C@H]3O[C@H](CN)[C@@H](O)[C@H](O)[C@H]3N)O[C@@H]2CO)[C@H](N)[C@@H](O)[C@@H]1O [FRAMYCETIN]	1020
CC(=O)Oc1ccccc1C(=O)Nc1ncc([N+](=O)[O-])s1 [NITAZOXANIDE]	4

Let us examine a further case.
Which value of MIC90 has been reported for CO[C@H]1/C=C/O[C@@]2(C)Oc3c(C)c(O)c4c(O)c(c5c(nc6cc(C)ccn65)c4c3C2=O)NC(=O)/C(C)=C\C=C\[C@H](C)[C@H](O)[C@@H](C)[C@@H](O)[C@@H](C)[C@H](OC(C)=O)[C@@H]1C [RIFAXIMIN] in the records?
332

====

Would you mind telling me the reported MIC50 of each entry?
# System: Clostridium lactatifermentans
# assay_details: Antimicrobial activity against Clostridium lactatifermentans by Wadsworth agar dilution method
# Format: functional
# condition: Anaerotignum lactatifermentans
Numbers only, in µg/mL.

// solved cases for MIC50 follow
compound	target_desc	MIC50, µg/mL
CC(=O)Oc1ccccc1C(=O)Nc1ncc([N+](=O)[O-])s1 [NITAZOXANIDE]	Clostridium lactatifermentans	0.5
CO[C@H]1/C=C/O[C@@]2(C)Oc3c(C)c(O)c4c(O)c(c5c(nc6cc(C)ccn65)c4c3C2=O)NC(=O)/C(C)=C\C=C\[C@H](C)[C@H](O)[C@@H](C)[C@@H](O)[C@@H](C)[C@H](OC(C)=O)[C@@H]1C	Clostridium lactatifermentans	0.25
CN[C@H](CC(C)C)C(=O)N[C@H]1C(=O)N[C@@H](CC(N)=O)C(=O)N[C@H]2C(=O)N[C@H]3C(=O)N[C@H](C(=O)N[C@H](C(=O)O)c4cc(O)cc(O)c4-c4cc3ccc4O)[C@H](O)c3ccc(c(Cl)c3)Oc3cc2cc(c3O[C@@H]2O[C@H](CO)[C@@H](O)[C@H](O)[C@H]2O[C@H]2C[C@](C)(N)[C@H](O)[C@H](C)O2)Oc2ccc(cc2Cl)[C@H]1O	Clostridium lactatifermentans	1

Let us examine a further case.
Which value of MIC50 has been reported for NC[C@@H]1O[C@H](O[C@H]2[C@@H](O)[C@H](O[C@@H]3[C@@H](O)[C@H](N)C[C@H](N)[C@H]3O[C@H]3O[C@H](CN)[C@@H](O)[C@H](O)[C@H]3N)O[C@@H]2CO)[C@H](N)[C@@H](O)[C@@H]1O in the records?
256

====

# System: Bifidobacterium pseudolongum
# assay_details: Antimicrobial activity against Bifidobacterium pseudolongum by Wadsworth agar dilution method
# Type: functional
Would you mind telling me the reported MIC90 of each entry?
Numbers only, in µg/mL.

// solved cases for MIC90 follow
compound	value_observed
CC(=O)Oc1ccccc1C(=O)Nc1ncc([N+](=O)[O-])s1 [NITAZOXANIDE]	32
NC[C@@H]1O[C@H](O[C@H]2[C@@H](O)[C@H](O[C@@H]3[C@@H](O)[C@H](N)C[C@H](N)[C@H]3O[C@H]3O[C@H](CN)[C@@H](O)[C@H](O)[C@H]3N)O[C@@H]2CO)[C@H](N)[C@@H](O)[C@@H]1O [FRAMYCETIN]	1020

Let us examine a further case.
Which value of MIC90 has been reported for CN[C@H](CC(C)C)C(=O)N[C@H]1C(=O)N[C@@H](CC(N)=O)C(=O)N[C@H]2C(=O)N[C@H]3C(=O)N[C@H](C(=O)N[C@H](C(=O)O)c4cc(O)cc(O)c4-c4cc3ccc4O)[C@H](O)c3ccc(c(Cl)c3)Oc3cc2cc(c3O[C@@H]2O[C@H](CO)[C@@H](O)[C@H](O)[C@H]2O[C@H]2C[C@](C)(N)[C@H](O)[C@H](C)O2)Oc2ccc(cc2Cl)[C@H]1O [VANCOMYCIN] in the records?
64

====

# Test system: Clostridium acetobutylicum
# assay_details: Antimicrobial activity against Clostridium acetobutylicum by Wadsworth agar dilution method
# Format: functional
Would you mind telling me the reported MIC90 of each entry?
Answers are plain numbers, in µg/mL.

// solved cases for MIC90 follow
molecule	MIC90, µg/mL
CC(=O)Oc1ccccc1C(=O)Nc1ncc([N+](=O)[O-])s1 [NITAZOXANIDE]	4
CN[C@H](CC(C)C)C(=O)N[C@H]1C(=O)N[C@@H](CC(N)=O)C(=O)N[C@H]2C(=O)N[C@H]3C(=O)N[C@H](C(=O)N[C@H](C(=O)O)c4cc(O)cc(O)c4-c4cc3ccc4O)[C@H](O)c3ccc(c(Cl)c3)Oc3cc2cc(c3O[C@@H]2O[C@H](CO)[C@@H](O)[C@H](O)[C@H]2O[C@H]2C[C@](C)(N)[C@H](O)[C@H](C)O2)Oc2ccc(cc2Cl)[C@H]1O [VANCOMYCIN]	4

Let us examine a further case.
Which value of MIC90 has been reported for NC[C@@H]1O[C@H](O[C@H]2[C@@H](O)[C@H](O[C@@H]3[C@@H](O)[C@H](N)C[C@H](N)[C@H]3O[C@H]3O[C@H](CN)[C@@H](O)[C@H](O)[C@H]3N)O[C@@H]2CO)[C@H](N)[C@@H](O)[C@@H]1O [FRAMYCETIN] in the records?
1020

====

# Tested on: Lactobacillus catenaformis
# assay_details: Antimicrobial activity against Lactobacillus catenaformis by Wadsworth agar dilution method
# Type: functional
# condition: Eggerthia catenaformis
Would you mind telling me the reported MIC50 of each entry?
Give bare numbers, in µg/mL.

compound	MIC50 / µg/mL
CO[C@H]1/C=C/O[C@@]2(C)Oc3c(C)c(O)c4c(O)c(c5c(nc6cc(C)ccn65)c4c3C2=O)NC(=O)/C(C)=C\C=C\[C@H](C)[C@H](O)[C@@H](C)[C@@H](O)[C@@H](C)[C@H](OC(C)=O)[C@@H]1C [RIFAXIMIN]	0.5
CC(=O)Oc1ccccc1C(=O)Nc1ncc([N+](=O)[O-])s1 [NITAZOXANIDE]	2
NC[C@@H]1O[C@H](O[C@H]2[C@@H](O)[C@H](O[C@@H]3[C@@H](O)[C@H](N)C[C@H](N)[C@H]3O[C@H]3O[C@H](CN)[C@@H](O)[C@H](O)[C@H]3N)O[C@@H]2CO)[C@H](N)[C@@H](O)[C@@H]1O [FRAMYCETIN]	128

Let us examine a further case.
Which value of MIC50 has been reported for CN[C@H](CC(C)C)C(=O)N[C@H]1C(=O)N[C@@H](CC(N)=O)C(=O)N[C@H]2C(=O)N[C@H]3C(=O)N[C@H](C(=O)N[C@H](C(=O)O)c4cc(O)cc(O)c4-c4cc3ccc4O)[C@H](O)c3ccc(c(Cl)c3)Oc3cc2cc(c3O[C@@H]2O[C@H](CO)[C@@H](O)[C@H](O)[C@H]2O[C@H]2C[C@](C)(N)[C@H](O)[C@H](C)O2)Oc2ccc(cc2Cl)[C@H]1O [VANCOMYCIN] in the records?
1
